Reference source for all entries: PubChem BioAssay (NCI)

System: CAKI-1 renal
Experiment: NCI-60 one-dose screen, 48 h (100 = growth as untreated, 0 = no growth, -100 = all killed)
Details: 10 µM unless noted
The panel holds about 83,000 compounds, 20% with a hit somewhere; the sample as a whole holds those more often.
Provide the recorded growth for the entries that follow.
Answers are plain numbers, in %.

molecule: CCCCCCCCc1ccc(C(=O)Nc2cccc(O)c2)cc1
growth [%]: 77.8
--
molecule: O=C1N/C(=N\c2nccs2)S/C1=C\c1ccc([N+](=O)[O-])cc1
growth [%]: 18.8

The following molecules each have a reported value; give each one's growth.
1. CN1CCc2c(sc3ncnc(N/N=C/c4cccc(Cl)c4Cl)c23)C1
2. O=C(CSc1nc2sc3c(c2c(=O)n1-c1ccc(Cl)cc1)CCCC3)NNC(=O)c1ccc(Br)cc1
3. COc1cc(CNC(=O)C[C@H](C)CCC=C(C)C)ccc1OCc1cn(-c2cccc(C(F)(F)F)c2)nn1
4. Cc1cccc(NCC(=O)N2CCN(c3ncnc4c3cnn4-c3ccccc3)CC2)c1
5. COc1c2c(c(Br)c3c1C(CCc1ccccc1)N(C)CC3)OCO2 (stereo unspecified)
6. N#CC1=C(c2ccco2)Nc2c(c(-c3ccccc3)nn2-c2ccccc2)C12C(=O)Nc1ccc(Cl)cc12 (stereo unspecified)
7. O=C(NC(=S)N1CCN(c2ncnc3c2cnn3-c2ccccc2)CC1)c1ccc(Br)cc1
8. N#Cc1ccc(C(=O)CSc2nc3c(c(Nc4ccc(S(N)(=O)=O)cc4)n2)CCC3)cc1

Result:
79.4
71.4
73.6
47.8
36
33
47.8
39.1

Fill in growth for each of the 7 molecules listed.
1. COc1ccc(-c2cc(C)nc3[nH]c(=O)sc23)cc1
2. Oc1ccc(Cl)c(Nc2nc(SCCN3CCOCC3)nc3c2cnn3CC(Cl)c2ccc(Br)cc2)c1 (stereo unspecified)
3. CCOc1ccc(-c2cc(-c3cc(C(C)C)c(O)cc3C)nn2-c2ccc(S(N)(=O)=O)cc2)cc1
4. CCN1C(=O)N(CC)C2NNC(Sc3c(C(=O)O)c4ccccc4n(CCC(C)C)c3=O)=NC21 (stereo unspecified)
5. FC(F)(F)c1cc2c(Cl)ncnc2n1CCN1CCCCC1
6. CCOc1ccccc1[C@H]1C(C(=O)c2ccc(Cl)cc2)C2(N[C@@H]1c1ccccc1)C(=O)Nc1ccccc12 (stereo partly specified)
7. CC(C)(C)C(=O)c1c2c(c3ccc4c5ccccc5ccc4n13)C(=O)c1ccccc1C2=O

Result:
1. 40.5
2. 21.2
3. 58.7
4. 38.9
5. 21.3
6. 8.88
7. 85.4

Quick batch: growth for everything below.
1. O=C1CC(c2ccc(I)cc2)OC2C=Cc3ccccc3C12 (stereo unspecified)
2. Cc1ccc(C(=O)Nc2ccc(-n3ccnc3)c(C(F)(F)F)c2)cc1C#Cc1cnc2cccnn12
3. CC(C)C[C@H](NC(=O)CNC(=O)C[C@H]1O[C@@H]2OC3(C)CC[C@H]4[C@H](C)CC[C@@H]([C@H]1C)[C@@]24O3)B(O)O
4. N#C/C(=C1/C(=O)Nc2ccccc21)c1nnc(NC(=O)c2ccc(-n3c(=O)[nH]c4ccccc4c3=O)cc2)s1
5. Cc1ccc2nc(COc3ccc(C(=O)NNC(=O)Nc4ccc(Cl)c(C(F)(F)F)c4)cc3)[nH]c2c1
6. COc1cc2cc(C(=O)N3C[C@@H](CCl)c4c3cc(OC(=O)N(CCC(=O)N3CCN(C)CC3)[C@H]3CCSSC3)c3ccccc43)[nH]c2c(OC)c1OC

Result:
1. 91.7
2. -4.4
3. 15.8
4. 49.2
5. 73.2
6. 13.7

###

Tested on: HCT-15 colon
Assay: NCI-60 one-dose screen, 48 h (100 = growth as untreated, 0 = no growth, -100 = all killed)
Conditions: 10 µM unless noted
About 83,000 compounds went through this panel and 20% of them were active in at least one assay; those are over-represented in the sample as a whole.
measuredQuantity: growth (%)
Answers are plain numbers, in %.

Worked examples, 5 molecules total:
molecule: C=CC(=O)Nc1ccc(C(=O)/C=C/c2ccc(N(C)C)cc2)c(O)c1
unitOfMeasurement: %
growth: -17.2
--
molecule: Cc1ccc(S(=O)(=O)Nc2ccc(-c3ccc4c(c3)NC(=O)/C4=C\c3ccc[nH]3)cc2)cc1
unitOfMeasurement: %
growth: 68.7
--
molecule: N#CC1=C(c2ccco2)Nc2c(c(-c3ccccc3)nn2-c2ccccc2)C12C(=O)Nc1ccc(Cl)cc12 (stereo unspecified)
unitOfMeasurement: %
growth: 30.4
--
molecule: S=C(Nc1ccccc1)Nc1ccc(OCc2nc3ccc(Cl)cc3[nH]2)cc1
unitOfMeasurement: %
growth: 67.9
--
molecule: COc1ccc2c(c1)N=c1c-2cc2c(O)[nH]c(=S)n2c1=O
unitOfMeasurement: %
growth: 27.3

Give growth for each listed item.
1. CC1=NN(C2=NC(=O)C(CC(=O)Nc3ccccc3C(F)(F)F)S2)C(c2ccc(N(C)C)cc2)C1 (stereo unspecified)
2. O=C(/C=C1\C(=O)N(Cc2ccccc2)c2ccccc21)c1cc2ccccc2oc1=O
3. Cc1nn(-c2ccccc2)c2nc(C)n(CC(=O)N/N=C/c3cccc([N+](=O)[O-])c3)c(=O)c12
4. O=C(Nc1ccc(-c2ccc3c(c2)NC(=O)/C3=C\c2ccc[nH]2)cc1)Nc1ccc(Cl)c(Cl)c1
5. CCCCCCCCc1ccc(C(=O)Nc2cccc(O)c2)cc1
6. Fc1ccc(Nc2nnc(-c3c[nH]c4ccccc34)o2)cc1

Result:
[17.1, 31.8, 96.2, 41.4, 47.4, 66.7]

###

Consider the following molecules; for each one, report its growth.
Test system: SF-268 CNS
Experiment: NCI-60 one-dose screen, 48 h (100 = growth as untreated, 0 = no growth, -100 = all killed)
Details: 10 µM unless noted
This is part of a sample that, as a whole, favours compounds with a hit. Of some 83,000 tested, about 20% had one in any assay.
Give bare numbers, in %.

Before answering, review these 3 worked examples.
molecule: COc1ccc2[nH]c(=O)c(CSc3ccccc3Nc3nccc(-c4ccc5c(c4)OCO5)n3)cc2c1
studySystem: SF-268 CNS
growth / %: 73.4
//
molecule: CC1=C(C(=O)OCc2ccccc2)C(c2ccc(N(C)C)cc2)n2c(nc3ccccc32)N1 (stereo not given)
studySystem: SF-268 CNS
growth / %: 81.7
//
molecule: O=C(N/N=C/c1ccsc1)c1[nH]c2ccc(Br)cc2c1-c1ccccc1
studySystem: SF-268 CNS
growth / %: -56.1

Required: growth, one value per molecule below.
1. CS(=O)(=O)Nc1cccc(-n2cnc3cc(-c4ccc(O)cc4)ccc32)c1
2. N#CC1=C(c2cccs2)Nc2c(c(-c3ccccc3)nn2-c2ccccc2)C12C(=O)Nc1ccc(Br)cc12 (stereo not given)
3. COc1ccccc1/C=C/c1cccc(NC(=S)NCCCCN(C)C)c1
4. O=C(CSc1nnc(-c2ccc(-c3nc4ccccc4[nH]3)cc2)o1)Nc1ccccc1
5. Cc1nn(-c2ccccc2)c2nc(C)n(CC(=O)N/N=C/c3cccc([N+](=O)[O-])c3)c(=O)c12

Result:
[50.3, 15.7, 6.05, 45.7, 96.5]

Quick request: growth for each listed item, please.
1. CNS(=O)(=O)N1CCc2c(Br)c3c(c(OC)c2C1CCc1ccccc1)OCO3 (stereo not given)
2. N/C(=N\c1nc2ccccc2s1)NC(=O)Nc1ccccc1F

Result:
1. -12
2. 47.2

###

Test system: MDA-MB-435 melanoma
Experiment: NCI-60 one-dose screen, 48 h
Conditions: 10 µM unless noted
This is part of a sample that, as a whole, favours compounds with a hit. Of some 83,000 tested, about 20% had one in any assay. Calls of active or inactive are those of the source. How the source made its calls: active means growth percent below 10; inactive means the rest.
Can you answer with just one of these options? T for active, F for inactive

Would you please look over these solved cases?
compound: COc1ccc(-c2cc(C(=O)OCc3ccc(Br)cc3)nn2-c2ccc(S(C)(=O)=O)cc2)cc1OC
category: F
//
compound: COc1ccc(-n2c(NC(=O)N3CCN(C)CC3)c(C#N)c3ccccc32)cc1
category: F
//
compound: O=C1c2cccc3c(N4CCN(c5ccccc5)CC4)ccc(c23)C(=O)N1c1cccc(-c2nn(-c3ccccc3)cc2-c2nc3ccccc3s2)c1
category: F
//
compound: COc1ccc2oc(=O)c(-c3csc(N/N=C(\C)c4cc(OC)c(OC)c(OC)c4)n3)cc2c1
category: F
//
compound: CCOc1ccccc1NC(=O)N/C(N)=N/c1nc2ccccc2s1
category: T

Ask: Please indicate how the test categorized COc1ccc(/C=C/C(=O)c2ccc(OC)c(S(N)(=O)=O)c2)c(C(F)(F)F)c1 .
Result: F

Ask: // return assay outcome for COc1ccc(-c2nc3ccc(-c4nnc(SCC(=O)Nc5ccc(/C(C)=N\O)cc5)o4)cc3[nH]2)cc1
Result: F

Ask: For this compound, state the assay outcome: COc1ccc(-c2nnc3c(/C=C/c4ccc(Br)cc4)nc4ccccc4n23)cc1
Result: F

Ask: Per the records of this test, what outcome belongs to COc1cc(C2CC(c3ccc(Cl)cc3)=Nc3c(N)nc(N)nc3N2)ccc1Oc1nc(Nc2ccc(F)cc2)nc(N(C)C)n1 (stereo not given) ?
Result: F

Ask: Check the results log: what was the call for CCOC(=O)/C(F)=C/C1CC1C(c1ccccc1)c1ccccc1 (stereo not given) ?
Result: F

Ask: Dear all, I need the recorded test outcome for O=C1Nc2ccc(F)cc2/C1=C/C(=O)c1cc2ccccc2oc1=O , thank you.
Result: F

Ask: Name the outcome recorded for Cc1ccc(NC(=O)N/N=C/c2c[nH]c3ccccc23)c(C)c1 in the assay.
Result: T

Ask: How was CCCCCCCCc1ccc(C(=O)Nc2ccc(C)c(OP(=O)(O)O)c2)cc1 classified in this test?
Result: F
